# measurementDescription: Solubility in 0.1 M phosphate buffer at pH 7.4 by shake-flask method
# Assay type: physicochemical
readoutName: solubility thermodynamic (µg/mL)

>  <structureAsSmiles>
COc1ccc2c(Nc3c(Cl)cncc3Cl)cc(=O)oc2c1OCCCCCCC(=O)O

>  <solubility thermodynamic [µg/mL]>
1400

$$$$

I: COc1ccc2c(Nc3c(Cl)cncc3Cl)cc(=O)oc2c1OCCCCCCCCC(=O)O
II: COc1ccc2c(Nc3c(Cl)cncc3Cl)cc(=O)oc2c1OCCCCN(C)C
III: COc1ccc2c(Nc3c(Cl)cncc3Cl)cc(=O)oc2c1OCCCCCN(C)C
IV: COc1ccc2c(Nc3c(Cl)cncc3Cl)cc(=O)oc2c1OCCCCCC(=O)O
Please produce an ascending ranking of these molecules based on solubility thermodynamic. Response format: the labels, sorted as the prompt asks. III, I, IV, II

###

Recorded IC50 values (3',5'-cyclic-AMP phosphodiesterase 4B (Homo sapiens)) are given below.
readoutName: IC50 (nM)

>  <structureAsSmiles>
COc1ccc2c(Nc3c(Cl)cncc3Cl)nncc2c1OC1CCCC1

>  <IC50, nM>
400

$$$$
>  <structureAsSmiles>
COc1ccc2c(Nc3c(Cl)cncc3Cl)cc(=O)oc2c1OCCCCN(C)C

>  <IC50, nM>
45

$$$$
>  <structureAsSmiles>
COc1ccc2c(Nc3c(Cl)cncc3Cl)ncnc2c1OC1CCCC1

>  <IC50, nM>
2300

$$$$
>  <structureAsSmiles>
COc1ccc2c(Nc3c(Cl)cncc3Cl)cc(=O)oc2c1OCCCCCCCC(=O)O

>  <IC50, nM>
2

$$$$

P: COc1ccc2c(Nc3c(Cl)cncc3Cl)cc(=O)oc2c1OCCCC(=O)O
Q: COc1ccc2c(Nc3c(Cl)cncc3Cl)cc(=O)oc2c1OCCCN(C)C
R: COc1ccc2c(Nc3c(Cl)cncc3Cl)cc(=O)oc2c1OCCCCC(=O)O
S: COc1ccc2c(Nc3c(Cl)cncc3Cl)cc(=O)oc2c1OCCCCCCCCN(C)C
T: COc1ccc2c(Nc3c(Cl)cncc3Cl)cc(=O)oc2c1OCCCCCC(=O)O
Order the records by IC50, with each subsequent value no larger than the one before. Response format: the labels, sorted as the prompt asks. Q, P, R, T, S

a: COc1ccc2c(Nc3c(Cl)cncc3Cl)cc(=O)oc2c1OCCCCCCCN(C)C
b: COc1ccc2c(Nc3c(Cl)cncc3Cl)ccnc2c1OC1CCCC1
I'd appreciate it if you could identify which of a and b has the greater IC50. Could you answer with the label of the item you picked? b
(b: 3300 nM, a: 3 nM)

###

# measurementDescription: Solubility in 0.1 M phosphate buffer at pH 7.4 by shake-flask method
# Assay type: physicochemical
readoutName: solubility thermodynamic (µg/mL)

>  <structureAsSmiles>
COc1ccc2c(Nc3c(Cl)cncc3Cl)cc(=O)oc2c1OCCCCCCCC(=O)O

>  <readoutName>
solubility thermodynamic

>  <measValue>
300

$$$$

P: COc1ccc2c(Nc3c(Cl)cncc3Cl)cc(=O)oc2c1OCCCCC(=O)O
Q: COc1ccc2c(Nc3c(Cl)cncc3Cl)cc(=O)oc2c1OC1CCCC1
Of the pair P and Q , name the member with the lesser recorded solubility thermodynamic. Could you answer with the label of the item you picked? Q
(Q: 0.3 µg/mL, P: 500 µg/mL)

Values were extracted from ChEMBL document CHEMBL1158541.
